The measurements presented in this section are drawn from patent US20080262064A1.

target-system: GABAB receptor (Homo sapiens, UniProt O75899+Q9UBS5)
Sequence (Q9UBS5 15-961 limits assumed): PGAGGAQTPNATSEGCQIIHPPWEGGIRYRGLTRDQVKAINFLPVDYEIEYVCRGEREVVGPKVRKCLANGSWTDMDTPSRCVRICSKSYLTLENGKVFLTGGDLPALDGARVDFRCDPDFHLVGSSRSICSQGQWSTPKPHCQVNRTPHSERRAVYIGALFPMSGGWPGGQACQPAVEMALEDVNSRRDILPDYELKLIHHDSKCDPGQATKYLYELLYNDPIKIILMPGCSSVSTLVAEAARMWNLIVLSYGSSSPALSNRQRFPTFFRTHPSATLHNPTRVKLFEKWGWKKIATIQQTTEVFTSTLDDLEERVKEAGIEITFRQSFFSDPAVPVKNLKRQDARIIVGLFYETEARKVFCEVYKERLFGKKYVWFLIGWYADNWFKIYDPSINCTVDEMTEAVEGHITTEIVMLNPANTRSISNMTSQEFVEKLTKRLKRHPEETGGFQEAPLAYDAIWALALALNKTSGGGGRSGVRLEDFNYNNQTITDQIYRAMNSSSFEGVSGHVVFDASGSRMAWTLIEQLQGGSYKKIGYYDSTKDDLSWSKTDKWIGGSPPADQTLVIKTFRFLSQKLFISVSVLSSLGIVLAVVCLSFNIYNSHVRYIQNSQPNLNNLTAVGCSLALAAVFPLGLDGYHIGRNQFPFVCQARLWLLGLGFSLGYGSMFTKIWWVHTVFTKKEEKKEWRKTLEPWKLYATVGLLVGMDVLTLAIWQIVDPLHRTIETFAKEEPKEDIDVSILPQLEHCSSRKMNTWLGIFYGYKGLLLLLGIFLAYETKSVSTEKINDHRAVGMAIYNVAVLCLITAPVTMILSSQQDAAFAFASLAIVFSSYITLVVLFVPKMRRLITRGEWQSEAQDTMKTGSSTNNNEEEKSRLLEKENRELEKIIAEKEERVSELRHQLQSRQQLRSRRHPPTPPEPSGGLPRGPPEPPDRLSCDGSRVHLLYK
Sequence (O75899 42-941): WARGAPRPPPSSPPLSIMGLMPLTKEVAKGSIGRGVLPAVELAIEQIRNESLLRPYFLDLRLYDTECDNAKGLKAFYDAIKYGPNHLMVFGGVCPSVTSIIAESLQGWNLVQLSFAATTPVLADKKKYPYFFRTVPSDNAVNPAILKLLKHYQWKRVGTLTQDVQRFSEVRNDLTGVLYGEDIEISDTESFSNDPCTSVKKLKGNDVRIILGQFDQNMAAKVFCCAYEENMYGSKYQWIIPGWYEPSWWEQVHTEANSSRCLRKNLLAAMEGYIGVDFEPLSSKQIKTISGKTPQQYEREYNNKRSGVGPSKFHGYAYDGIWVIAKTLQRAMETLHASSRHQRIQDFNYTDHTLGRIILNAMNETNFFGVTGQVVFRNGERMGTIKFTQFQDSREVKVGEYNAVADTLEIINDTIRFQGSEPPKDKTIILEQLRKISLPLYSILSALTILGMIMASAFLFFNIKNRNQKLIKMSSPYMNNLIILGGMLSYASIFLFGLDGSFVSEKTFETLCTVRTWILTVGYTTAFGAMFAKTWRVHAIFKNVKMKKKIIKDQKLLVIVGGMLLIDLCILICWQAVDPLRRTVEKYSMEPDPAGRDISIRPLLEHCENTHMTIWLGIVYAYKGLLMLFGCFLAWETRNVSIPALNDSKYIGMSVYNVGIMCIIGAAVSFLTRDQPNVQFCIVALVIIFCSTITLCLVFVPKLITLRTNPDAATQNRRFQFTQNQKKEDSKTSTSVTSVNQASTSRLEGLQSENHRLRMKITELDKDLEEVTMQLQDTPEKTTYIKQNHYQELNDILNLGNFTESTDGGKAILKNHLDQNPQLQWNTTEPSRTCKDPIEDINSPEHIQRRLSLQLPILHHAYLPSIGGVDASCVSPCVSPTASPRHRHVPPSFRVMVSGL
assay-comment: [35S]-GTPγS binding assay, potency of PAM on the GABA dose-response
measurement-parameters: membranes from CHO cell lines expressing GABAB receptor; GABA in presence or absence of PAM
measurement-type: IC50 (nM)

COc1nc(NC(=O)c2ccc(Cl)cc2Cl)c(C(=O)OC(C)(C)COCC(F)(F)F)n1-c1ccc(F)cc1 [Example 11]    1100

(a) COc1nc(NC(=O)c2c(F)cc(F)cc2F)c(C(=O)OC(C)(C)C)n1-c1ccc(F)cc1 [Example 8]
(b) COCC(C)(C)OC(=O)c1c(NC(=O)C2COc3ccccc3O2)nc(OC)n1-c1ccc2c(c1)OCO2 (stereo not shown) [Example 15]
(c) COc1nc(NC(=O)c2ccc(Cl)cc2)c(C(=O)OC(C)(C)C)n1-c1ccc(F)cc1 [Example 2]
Rank entries according to their IC50, from the largest number down. Labels, requested order.
c, b, a
(c: 3100 nM, b: 1400 nM, a: 810 nM)

---

target-system: GABAB receptor (Homo sapiens, UniProt O75899+Q9UBS5)
assay-comment: [35S]-GTPγS binding assay, potency of PAM on the GABA dose-response
measurement-parameters: membranes from CHO cell lines expressing GABAB receptor; GABA in presence or absence of PAM
pIC50: −log10 of the molar value.
measurement-type: pIC50

CCc1nc(NC(=O)c2ccc(N=[N+]=[N-])cc2)c(C(=O)OC(C)(C)C)n1-c1ccc(F)cc1    5.96
COc1nc(NC(=O)c2ccc(Cl)cc2Cl)c(C(=O)OC(C)(C)C)n1-c1ccc(F)cc1    5.67
COCC(C)(C)OC(=O)c1c(NC(=O)c2ccc(Cl)cc2Cl)nc(OC)n1-c1cccc(OC)c1    5.89
COCC(C)(C)OC(=O)c1c(NC(=O)c2ccc(Cl)cc2)nc(OC)n1-c1ccc2c(c1)OCO2    5.92
COc1nc(NC(=O)C2(c3ccc(Cl)cc3)CCCC2)c(C(=O)OC(C)(C)C)n1-c1ccc(F)cc1    5.85
CCC1(C)CCC(C(C)(C)OC(=O)c2c(NC(=O)c3ccc(Cl)cc3Cl)nc(OC)n2-c2ccc(F)cc2)O1 (stereo not drawn)    5.68
CCOC(=O)C1(OC(=O)c2c(NC(=O)c3ccc(Cl)cc3Cl)nc(OC)n2-c2ccc(F)cc2)CC1    5.70

(A) COc1nc(NC(=O)C2COc3ccccc3O2)c(C(=O)OC(C)(C)C)n1-c1ccc(F)cc1 (stereo not drawn)
(B) COCC(C)(C)OC(=O)c1c(NC(=O)COCc2ccccc2)nc(OC)n1-c1ccc2c(c1)OCO2
Given A and B , report the one with the higher recorded pIC50. Please indicate the selected item by its label.
A
(A: 5.82, B: 5.47)

---

target-system: GABAB receptor (Homo sapiens, UniProt O75899+Q9UBS5)
assay-comment: [35S]-GTPγS binding assay, potency of PAM on the GABA dose-response
measurement-parameters: membranes from CHO cell lines expressing GABAB receptor; GABA in presence or absence of PAM
measurement-type: IC50 (nM)

COc1nc(NC(=O)c2cnn(-c3ccc(Cl)cc3)c2C(F)(F)F)c(C(=O)OC(C)(C)C)n1-c1ccc(F)cc1    1600

(P) COc1nc(NC(=O)c2ccc(Oc3ccccc3)nc2)c(C(=O)OC(C)(C)C)n1-c1ccc(F)cc1
(Q) COc1nc(NC(=O)c2scc(S(=O)(=O)C(C)C)c2Cl)c(C(=O)OC(C)(C)C)n1-c1ccc(F)cc1
Lab notebook, comparison: P versus Q , higher IC50 goes to which? Pick one; state its label.
Q
